- assayed.target: Aβ1-42 peptide (Homo sapiens, UniProt P05067)
- Sequence (P05067 672-713 limits assumed): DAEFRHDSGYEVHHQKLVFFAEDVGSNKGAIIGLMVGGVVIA
- procedure.details: Thioflavin T (ThT) fluorescence assay of Aβ1-42 aggregation (SensoLyte kit)
- Format: biochemical
- experimental.setup: Aβ1-42 35 μM, minimum of five concentrations, read-out: IC50, inhibition of Aβ aggregation (anti-amyloidogenic activity)
# IC50 values compiled below
observed.property: IC50 (nM)

>>> numeric_result("O=C(/C=C/C=C/c1ccc(N2CCCCC2)cc1)c1ccc(Cl)cc1")
1100
>>> numeric_result("COc1ccc(C(=O)/C=C/C=C/c2ccc(N(C)C)cc2)cc1")
3200
>>> numeric_result("CN(C)c1ccc(/C=C/C=C/C(=O)c2cc(Cl)cc(Cl)c2)cc1")
910
>>> numeric_result("CSc1ccc(C(=O)/C=C/C=C/c2ccc(N(C)C)cc2)cc1")
1500
>>> numeric_result("CN(C)c1ccc(C=CC=CC(=O)c2ccc(Cl)cc2)cc1")
2400
